Origin of the recorded values: ChEMBL document CHEMBL1155951

assay overview: Selectivity index, ratio of IC50 for african green monkey (Cercopithecus aethiops) Vero cells to IC50 for chloroquine-resistant Plasmodium falciparum FcM29
Format: toxicity, cell-based
details: read-out: Ratio IC50
measured metric: selectivity ratio

Could you tell me which selectivity ratio is on file for COc1cc2cccnc2c2nc(C)c3ccoc3c12 ?
129

Could you tell me which selectivity ratio is on file for Cc1nc2c(ccc3cccnc32)c2[nH]ccc12 ?
7

Could you tell me which selectivity ratio is on file for COc1cc2cccnc2c2nc(C)c3cc[nH]c3c12 ?
23

Could you tell me which selectivity ratio is on file for Cc1nc2c(ccc3cccnc32)c2occc12 ?
99

* * *

assay overview: Selectivity index, ratio of IC50 for african green monkey (Cercopithecus aethiops) Vero cells to IC50 for chloroquine-resistant Plasmodium falciparum W2
Type: toxicity, cell-based
details: read-out: Ratio IC50
Can you tell me selectivity ratio for the items I'm about to list?
Number only, please.

Could you tell me which selectivity ratio is on file for COc1cc2cccnc2c2nc(C)c3cc[nH]c3c12 ?
23

Could you tell me which selectivity ratio is on file for COc1cc2cccnc2c2nc(C)c3ccoc3c12 ?
66

Could you tell me which selectivity ratio is on file for Cc1nc2c(ccc3cccnc32)c2occc12 ?
34

Could you tell me which selectivity ratio is on file for Cc1nc2c(ccc3cccnc32)c2[nH]ccc12 ?
15
